Overview of recorded fold difference in affinity vs original for various binders
biological target: binding partner (antigen) of C5A (XPA23); assay: Biacore, K-off, fold vs original
Write the number in fold without appending the unit.

The following binders have reported results that may help.
Binder	Display Unit	fold difference in affinity vs original
C5A (XPA23) VH Y101W (antibody, V domains shown) VH: EVQLLESGGGLVQPGGSLRLSCAASGFTFSKYFMFWVRQAPGKGLEWVSVISPSGGMTRYADSVKGRFTISRDNSKNTLYLQMNSLRAEDTAVYYCARVGWGGNSDYWGQGTLVTVSS VL: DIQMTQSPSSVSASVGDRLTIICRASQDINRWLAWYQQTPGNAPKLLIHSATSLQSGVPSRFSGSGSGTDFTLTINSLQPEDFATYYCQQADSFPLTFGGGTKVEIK	fold	0.81
C5A (XPA23) VH S54G (antibody, V domains shown) VH: EVQLLESGGGLVQPGGSLRLSCAASGFTFSKYFMFWVRQAPGKGLEWVSVISPGGGMTRYADSVKGRFTISRDNSKNTLYLQMNSLRAEDTAVYYCARVGYGGNSDYWGQGTLVTVSS VL: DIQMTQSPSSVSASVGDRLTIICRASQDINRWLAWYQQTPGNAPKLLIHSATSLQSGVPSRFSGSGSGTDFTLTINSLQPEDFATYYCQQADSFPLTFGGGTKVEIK	fold	1.43
C5A (XPA23) VH Y101I (antibody, V domains shown) VH: EVQLLESGGGLVQPGGSLRLSCAASGFTFSKYFMFWVRQAPGKGLEWVSVISPSGGMTRYADSVKGRFTISRDNSKNTLYLQMNSLRAEDTAVYYCARVGIGGNSDYWGQGTLVTVSS VL: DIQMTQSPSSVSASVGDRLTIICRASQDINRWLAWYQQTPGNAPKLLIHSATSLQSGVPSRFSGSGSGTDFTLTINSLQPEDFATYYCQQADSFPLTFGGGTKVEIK	fold	0.83
C5A (XPA23) VH M57F (antibody, V domains shown) VH: EVQLLESGGGLVQPGGSLRLSCAASGFTFSKYFMFWVRQAPGKGLEWVSVISPSGGFTRYADSVKGRFTISRDNSKNTLYLQMNSLRAEDTAVYYCARVGYGGNSDYWGQGTLVTVSS VL: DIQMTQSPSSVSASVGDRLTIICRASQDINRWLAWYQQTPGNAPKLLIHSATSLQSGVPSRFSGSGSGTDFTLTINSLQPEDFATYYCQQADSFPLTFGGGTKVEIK	fold	1.03

# context switch: different binder, same fold difference in affinity vs original
Q. What value of fold difference in affinity vs original has been reported for the following binder? C5A (XPA23) VH Y107A (antibody, V domains shown) VH: EVQLLESGGGLVQPGGSLRLSCAASGFTFSKYFMFWVRQAPGKGLEWVSVISPSGGMTRYADSVKGRFTISRDNSKNTLYLQMNSLRAEDTAVYYCARVGYGGNSDAWGQGTLVTVSS VL: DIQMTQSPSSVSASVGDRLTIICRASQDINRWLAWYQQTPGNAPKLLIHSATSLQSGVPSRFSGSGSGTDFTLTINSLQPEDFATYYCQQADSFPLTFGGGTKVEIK
A. 0.83
